Task for the reader: assign each of the following compounds its reported melting point.

Incoming: Entry COC(=O)[C@@H]1NC(=O)[C@@H]1NC(=O)COc1ccccc1 (relative stereo) : reported melting point = ?
Outgoing: 140 to 141 °C

Incoming: Next record, please: CCCCCCCCCCCCCc1c[nH]c(C(=O)O)c1
Outgoing: 150 to 151 °C

Incoming: Next record, please: O=C1OC(=O)c2c(Sc3ccccc3)c(Sc3ccccc3)c(Sc3ccccc3)c(Sc3ccccc3)c21
Outgoing: 141 to 142 °C

Incoming: Next record, please: N#CCCNC(=O)c1cccc(-c2ccc3c(c2)N(c2cc(Cl)ccc2Cl)CC3)c1
Outgoing: 189 to 190 °C

Incoming: Next record, please: CCCCC(CC)COC(=O)C(C#N)=Cc1ccc(NC(=O)C(CC)CCCC)cc1 (centres undefined)
Outgoing: 68 °C

Incoming: Next record, please: CCOC(=O)Cc1c(C)n(Cc2ccccc2)c2ccc(OCc3nc4ccccc4s3)cc12
Outgoing: 106 to 107 °C

Incoming: Next record, please: O=C(N[C@H]1CCN(Cc2ccccc2)C[C@H]1O)c1ccccc1O (relative stereo)
Outgoing: 127 °C

Incoming: Next record, please: CCON=C(CC)C1=C(O)CC(c2ccc(NC(=O)c3ccccc3C)cc2)CC1=O (centres undefined)
Outgoing: 139 to 140 °C

Incoming: Next record, please: CCOc1cccc(C(CO)n2nc(C(=O)O)c3c2-c2ccc(OCc4cncnc4)cc2CC3)c1 (centres undefined)
Outgoing: 210 to 212 °C

Incoming: Next record, please: CCOC(=O)c1ccc(COc2cccc3nc(C(=O)NCc4cccc(OC)c4)[nH]c(=O)c23)cc1
Outgoing: 205 to 207 °C

Incoming: Next record, please: CC1(C)CC(=O)N(CCCCN2CCN(c3nc(C(C)(C)C)cs3)CC2)C(=O)C1
Outgoing: 93 to 94 °C

Incoming: Next record, please: COc1ccc2c(c1)C(=O)N(c1ccc3c(c1)cc(C)n3C)C2
Outgoing: 209 to 213 °C

Incoming: Next record, please: O=[N+]([O-])c1cc(SC(F)(F)F)[nH]c1-c1ccc(Cl)cc1
Outgoing: 143 to 145 °C

Incoming: Next record, please: CN(C)C(=O)c1nc2n(n1)-c1ccc([N+](=O)[O-])cc1C(c1ccccc1)=NC2
Outgoing: 209 to 211 °C

Incoming: Next record, please: CN(C)C1(c2cccc(O)c2)CCC(=O)CC1
Outgoing: 175 to 177 °C

Incoming: Next record, please: COC(=O)c1cc(C(=O)c2cccc(Cl)c2)n(C)c1
Outgoing: 127 °C

Incoming: Next record, please: CCSc1nc2c(C)sc(C(=O)O)c2n1Cc1ccc(-c2ccccc2-c2n[nH]c(=O)n2C)cc1
Outgoing: 181 to 182 °C

Incoming: Next record, please: COc1ccc(CO)cc1OCc1nc(-c2ccco2)oc1C
Outgoing: 145 to 146 °C

Incoming: Next record, please: O=C(COc1ccc(Cl)cc1)N1CC2COCC2C1 (centres undefined)
Outgoing: 110 °C
